assay explanation: Pharmacokinetics in rat plasma after intragastric administration, hypoxia (9.0% O2)
Format: in vivo, Sprague-Dawley rats
condition parameters: male, Sprague-Dawley, po, PF 80 mg/kg single intragastric, mean ± SD, n = 6
experimental endpoint: half-life (h)
Numbers only, in h.

Record `C[C@@]12C[C@@]3(O)O[C@@H](O1)[C@]1(COC(=O)c4ccccc4)[C@H]3C[C@@]12O[C@@H]1O[C@H](CO)[C@@H](O)[C@H](O)[C@H]1O` . Reported half-life: 1.86

###

assay explanation: Pharmacokinetics in rat plasma after intragastric administration, normoxia (UPLC-MS/MS)
Format: in vivo, Sprague-Dawley rats
condition parameters: male, Sprague-Dawley, rat, plasma, po, 80 mg/kg, PF (80 mg/kg) combined with AF (14 mg/kg), intragastric, mean ± SD, n = 6
experimental endpoint: Cmax (ng/mL)
Give bare numbers, in ng/mL.

Record C[C@@]12C[C@@]3(O)O[C@@H](O1)[C@]1(COC(=O)c4ccccc4)[C@H]3C[C@@]12O[C@@H]1O[C@H](CO)[C@@H](O)[C@H](O)[C@H]1O [PF, paeoniflorin] . Reported Cmax: 320

###

assay explanation: Pharmacokinetics in rat plasma after intragastric administration, normoxia (UPLC-MS/MS)
Assay type: in vivo, Sprague-Dawley rats
condition parameters: male, Sprague-Dawley, rat, plasma, po, 14 mg/kg, AF (14 mg/kg) combined with PF (80 mg/kg), intragastric, mean ± SD, n = 6
experimental endpoint: Tmax (min)
Numbers only, in min.

Record CC12CC(O)C3CC1(OC1OC(CO)C(O)C(O)C1O)C3(COC(=O)c1ccccc1)C(=O)O2 (stereo not shown) . Reported Tmax: 41.7

###

assay explanation: Pharmacokinetics in rat plasma after intragastric administration, normoxia (UPLC-MS/MS)
Assay type: in vivo, Sprague-Dawley rats
condition parameters: male, Sprague-Dawley, rat, plasma, po, 14 mg/kg, AF alone, 14 mg/kg intragastric, normoxia, mean ± SD, n = 6
experimental endpoint: Cmax (ng/mL)
Give bare numbers, in ng/mL.

Record CC12CC(O)C3CC1(OC1OC(CO)C(O)C(O)C1O)C3(COC(=O)c1ccccc1)C(=O)O2 (stereo not shown) [AF, albiflorin] . Reported Cmax: 70.3

###

assay explanation: Pharmacokinetics in rat plasma after intragastric administration, normoxia (UPLC-MS/MS)
Type: in vivo, Sprague-Dawley rats
condition parameters: male, Sprague-Dawley, rat, plasma, po, 14 mg/kg, AF in TPG (TPG dose with AF 14 mg/kg), intragastric, mean ± SD, n = 6, read-out: AUC(0→24 h) (converted)
experimental endpoint: AUC(0-t) (ng·h/mL)
Give bare numbers, in ng·h/mL.

Record CC12CC(O)C3CC1(OC1OC(CO)C(O)C(O)C1O)C3(COC(=O)c1ccccc1)C(=O)O2 (stereo not shown) . Reported AUC(0-t): 196

###

assay explanation: Pharmacokinetics in rat plasma after intragastric administration, normoxia (UPLC-MS/MS)
Type: in vivo, Sprague-Dawley rats
condition parameters: male, Sprague-Dawley, rat, plasma, po, 80 mg/kg, PF in TPG (TPG dose with PF 80 mg/kg), intragastric, mean ± SD, n = 6
experimental endpoint: Tmax (min)
Numbers only, in min.

Record `C[C@@]12C[C@@]3(O)O[C@@H](O1)[C@]1(COC(=O)c4ccccc4)[C@H]3C[C@@]12O[C@@H]1O[C@H](CO)[C@@H](O)[C@H](O)[C@H]1O` . Reported Tmax: 23.3
